Each recorded value in this set is attributed to patent EP0619297B1.

Test system: Gaeumannomyces graminis var. tritici (Ggt)
Test: In vitro assay: mycelial growth on minimal media agar plates (Percent Inhibition; IC50)
Assay type: cell-based
Conditions: 1 ppm in agar, 19 - 20 °C, 4 to 5 days, read-out: In vitro(ppm) 1, Percent Inhibition
The entries below come with measured inhibition at 1 ppm values attached.
Give the value; after it, write the unit.

Check out these entries, answers already filled in.
CCCN(CCC)C(=O)c1c(OC(CC)(CC)CC)ccc2ccccc12: 19%
CCCNC(=O)c1c(NC(C)(CC)CC)ccc2ccccc12: 95%

[Q] May I ask what inhibition at 1 ppm has been recorded for `CCNC(=O)c1c(OC2(C)CCCC2)ccc2ccccc12` ?
[A] 98%

###

Test system: Ggt
Assay: In vivo (8 week) seed treatment assay: Large Pot Greenhouse Take-All Assay
Parameters: species or system Gaeumannomyces graminis var. tritici
Conditions: seed treatment 0.5 g/kg seed; wheat, 6-inch pots, roots rated after 7-10 weeks
QUANTITY KIND: % control (rates are g/kg seed) 0.5 (%)
Give the number; % is assumed, so skip it.

Check out these entries, answers already filled in.
CCN(CC)C(=O)c1c(OC(C)(CC)CC)ccc2ccccc12: 0
C=CCNC(=O)c1c(OC(C)(C)CC)ccc2ccccc12: 0
C=CCNC(=O)c1c(OC(C)(CC)CC)ccc2ccccc12: 4

[Q] May I ask what % control (rates are g/kg seed) 0.5 has been recorded for `C=CCNC(=O)c1c(OC2(C)CCCC2)ccc2ccccc12` ?
[A] 4

[Q] Likewise for `CCCNC(=O)c1c(OC2(C)CCCCC2)ccc2ccccc12` ?
[A] 13

[Q] Likewise for `CCNC(=O)c1c(OC(C)(C)CC)ccc2ccccc12` ?
[A] 4

[Q] Likewise for `CCCNC(=O)c1c(OC(CC)(CC)CC)ccc2ccccc12` ?
[A] 0

###

Tested on: Gaeumannomyces graminis var. tritici (Ggt)
Assay: In vitro assay: mycelial growth on minimal media agar plates (Percent Inhibition; IC50)
Assay type: cell-based
Conditions: 1 ppm in agar, 19 - 20 °C, 4 to 5 days, read-out: In vitro(ppm) 1, Percent Inhibition
The entries below come with measured inhibition at 1 ppm values attached.
Give the number; % is assumed, so skip it.

Check out these entries, answers already filled in.
CCNC(=O)c1c(NC(C)(C)CC)ccc2ccccc12: 98
CCNC(=O)c1c(NC(C)(CC)CC)ccc2ccccc12: 21
CCN(CC)C(=O)c1c(OC(C)(CC)CC)ccc2ccccc12: 96

[Q] Form entry - test system: Gaeumannomyces graminis var. tritici (Ggt); read-out: inhibition at 1 ppm; compound: `C=CCNC(=O)c1c(OC(C)(CC)CC)ccc2ccccc12`
[A] 96

[Q] Likewise for `CCNC(=O)c1c(OC(C)(CC)CC)ccc2ccccc12` ?
[A] 96

###

The entries below come with measured inhibition at 1 ppm values attached.
Tested on: Gaeumannomyces graminis var. tritici (Ggt)
Experiment: In vitro assay: mycelial growth on minimal media agar plates (Percent Inhibition; IC50)
Assay type: cell-based
Details: 1 ppm in agar, 19 - 20 °C, 4 to 5 days, read-out: In vitro(ppm) 1, Percent Inhibition
Description: The test compounds (0.25 mL of an appropriate stock solution in acetone) are incorporated into 25 mL minimal media agar [prepared by autoclaving a solution of 17.5 g Czapek Dox broth (Difco), 7.5 g purified agar or Bacto-agar (Difco), and 500 mL distilled/deionized water, and then adding 50 µL of 1 mg/mL thiamine hydrochloride and 50 µL of 1 mg/mL biotin in 5% ethanol] and plates are prepared. […]
Give the number; % is assumed, so skip it.

[Q] Form entry - test system: Gaeumannomyces graminis var. tritici (Ggt); read-out: inhibition at 1 ppm; compound: `CCNC(=O)c1c(NC(C)(C)C)ccc2ccccc12`
[A] 98

[Q] Likewise for `CCNC(=O)c1c(OC2(C)CCCCC2)ccc2ccccc12` ?
[A] 43

[Q] Likewise for `C=CCNC(=O)c1c(OC(CC)(CC)CC)ccc2ccccc12` ?
[A] 100

[Q] Likewise for `CCNC(=O)c1c(OC(CC)(CC)CC)ccc2ccccc12` ?
[A] 97

[Q] Likewise for `CCCNC(=O)c1c(OC(C)(CC)CC)ccc2ccccc12` ?
[A] 17

[Q] Likewise for `C=CCNC(=O)c1c(OC2(C)CCCCC2)ccc2ccccc12` ?
[A] 96

[Q] Likewise for `C=CCNC(=O)c1c(OC(C)(C)CC)ccc2ccccc12` ?
[A] 98

[Q] Likewise for `CCCNC(=O)c1c(NC(C)(C)CC)ccc2ccccc12` ?
[A] 100

[Q] Likewise for `CCNC(=O)c1c(OC(C)(C)C)ccc2ccccc12` ?
[A] 86

[Q] Likewise for `C=CCNC(=O)c1c(OC2(C)CCCC2)ccc2ccccc12` ?
[A] 98

###

The entries below come with measured % control (rates are g/kg seed) 0.25 values attached.
Tested on: Ggt
Experiment: In vivo (8 week) seed treatment assay: Large Pot Greenhouse Take-All Assay
Parameters: species or system Gaeumannomyces graminis var. tritici
Settings: seed treatment 0.25 g/kg seed; wheat, 6-inch pots, roots rated after 7-10 weeks
Give the number; % is assumed, so skip it.

C=CCNC(=O)c1c(OC(C)(C)CC)ccc2ccccc12: 21
CCN(CC)C(=O)c1c(OC(C)(CC)CC)ccc2ccccc12: 22
C=CCNC(=O)c1c(OC2(C)CCCC2)ccc2ccccc12: 4
CCCNC(=O)c1c(OC(CC)(CC)CC)ccc2ccccc12: 17
CCCNC(=O)c1c(OC2(C)CCCCC2)ccc2ccccc12: 13

[Q] May I ask what % control (rates are g/kg seed) 0.25 has been recorded for `C=CCNC(=O)c1c(OC(C)(CC)CC)ccc2ccccc12` ?
[A] 0

[Q] Likewise for `CCNC(=O)c1c(OC(C)(C)CC)ccc2ccccc12` ?
[A] 25

###

Test system: Gaeumannomyces graminis var. tritici (Ggt)
Assay: In vitro assay: mycelial growth on minimal media agar plates (Percent Inhibition; IC50)
Type: cell-based
Conditions: read-out: In vitro(ppm) 0.1, Percent Inhibition
inhibition at 0.1 ppm of 40% or higher: MET. Under 40%: NOT MET.

Solved cases below.
CCNC(=O)c1c([Si](C)(C)C)ccc2ccsc12: MET
CCNC(=O)c1c([Si](C)(C)C)sc2ccccc12: MET
CCNC(=O)c1c([Si](C)(C)C)ccc2occc12: MET
CCC(C)(C)Nc1ccc2ccccc2c1C(=O)NCCBr: MET
CCNC(=O)c1c([Si](C)(C)C)ccc2ccccc12: MET

[Q] Check the entry `CC(C)N(O)C(=O)c1c([Si](C)(C)C)sc2ccccc12` : does inhibition at 0.1 ppm equal or exceed 40%?
[A] MET

[Q] Likewise for `CCNC(=O)c1c([Si](C)(C)C)ccc2sccc12` ?
[A] MET

###

Test system: Ggt
Test: In vivo assay: control of Ggt on wheat in 3-inch pots with infested soil, rated after four weeks;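 for In vivo(ppm) 0.5, percent disease control: rate is mg active ingredient per pot in 3 mL solution not ppm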
Set-up: species or system Gaeumannomyces graminis var. tritici
Details: Gaeumannomyces graminis, 672 h; rate 0.5 (head prints ppm, head line ends mg/pot); wheat, soil infested with Ggt, after four weeks; N = no control; read-out: In vivo(ppm) 0.5, percent disease control
Each entry belongs to exactly one class, chosen by where its pest or weed control at 0.5 mg/pot falls: range A: < 60%; range B: ≥ 60% and < 80%; range C: ≥ 80%

[Q] Exam item: assign `CCNC(=O)c1c(NC(C)(CC)CC)ccc2ccccc12` to the correct category.
[A] range C

[Q] Likewise for `C=CCNC(=O)c1c(OC(C)(C)CC)ccc2ccccc12` ?
[A] range C

[Q] Likewise for `CCCN(CCC)C(=O)c1c(OC(CC)(CC)CC)ccc2ccccc12` ?
[A] range A

[Q] Likewise for `CCCNC(=O)c1c(OC(C)(CC)CC)ccc2ccccc12` ?
[A] range A

[Q] Likewise for `CCNC(=O)c1c(OC(C)(C)CC)ccc2ccccc12` ?
[A] range C

[Q] Likewise for `CCCNC(=O)c1c(NC(C)(CC)CC)ccc2ccccc12` ?
[A] range B

[Q] Likewise for `C=CCNC(=O)c1c(OC(C)(CC)CC)ccc2ccccc12` ?
[A] range B

[Q] Likewise for `C=CCNC(=O)c1c(OC2(C)CCCC2)ccc2ccccc12` ?
[A] range B

[Q] Likewise for `CCN(CC)C(=O)c1c(OC(C)(CC)CC)ccc2ccccc12` ?
[A] range A

[Q] Likewise for `C=CCNC(=O)c1c(OC2(C)CCCCC2)ccc2ccccc12` ?
[A] range A

###

System: Ggt
Assay: In vivo assay: control of Ggt on wheat in 3-inch pots with infested soil, rated after four weeks
Parameters: species or system Gaeumannomyces graminis var. tritici
Details: Gaeumannomyces graminis, soil, 672 h, read-out: In vivo(ppm) 0.1, percent disease control
The entries below come with measured pest or weed control at 0.1 mg/pot values attached.
Give the number; % is assumed, so skip it.

CC(C)N(O)C(=O)c1c([Si](C)(C)C)sc2ccccc12: 42
CCC(C)(C)Nc1ccc2ccccc2c1C(=O)NCCBr: 0
CCNC(=O)c1c([Si](C)(C)C)sc2ccccc12: 43

[Q] May I ask what pest or weed control at 0.1 mg/pot has been recorded for `CCNC(=O)n1c([Si](C)(C)C)cc2ccccc21` ?
[A] 40

[Q] Likewise for `C=CCNC(=O)c1c([Si](C)(C)C)sc2ccccc12` ?
[A] 84

[Q] Likewise for `CCNC(=O)c1c([Si](C)(C)C)oc2ccccc12` ?
[A] 85

[Q] Likewise for `CC(C)(C)Nc1ccc2ccccc2c1C(=O)NCCBr` ?
[A] 0
